# procedure-summary: inhibition of 3D7 malaria parasite growth – strain 3D7 (AID 2306);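 also: 0% = DMSO wells and 100% = chloroquine plus artemisinin control wells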
# test-conditions: P. falciparum 3D7 erythrocytic growth, LDH absorbance, 72 h; at 2 µM; active compounds read high
# growth inhibition per entry
Report as a plain number; the unit % is understood.

These solved cases illustrate the format of a correct answer.
molecule: Cc1cc(OC(C)C(=O)N2CCc3ccccc32)ccc1Cl (centres undefined)
recorded-measurement: 89

molecule: COc1cc(/C=C/C(=O)NC2CCC(N3CCC(c4ccccc4C)CC3)CC2)cc(OC)c1 (centres undefined)
recorded-measurement: 89

molecule: COc1ccc(Nc2ncc3c(-c4ccc(NC(=O)c5cccc(C(F)(F)F)c5)cc4)c[nH]c3n2)cc1OC
recorded-measurement: 89

Consider now this further molecule.
Form field growth inhibition, entry "CCCOc1ccc(C(F)(F)F)cc1NC(=O)c1nc2nc(C)cc(C)n2n1" : 90

---

# procedure-summary: antimalarial activity against Dd2 strain (AID 2302);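 also: 0% = DMSO untreated growth and 100% = chloroquine plus artemisinin killed control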
# test-conditions: P. falciparum Dd2 in RBCs, LDH growth readout, 72 h; at 2 µM; active compounds read high
Class boundaries, taken from values of growth inhibition, are as follows: LOW (below 70%), MID (70% to below 90%), HIGH (90% or more)

A selection of reference data follows.
molecule: COc1ccc(Nc2nccc(N3CCC(NC(=O)Nc4cc(C)ccc4C)C3)n2)cc1 (centres undefined)
category-label: LOW

molecule: O=C(NCc1cccc(C(F)(F)F)c1)C(c1cc2ccccc2o1)N1CCN(C(c2ccccc2)c2ccccc2)CC1 (centres undefined)
category-label: MID

molecule: CC(C)c1ccc(N2CCN(CCCCNC(=O)c3ccc(NC(=O)c4cc(Cl)cc(Cl)c4)cc3)CC2)cc1
category-label: MID

molecule: Cc1nc(-c2nc(NCc3ccc4c(c3)OCO4)ncc2-c2ccsc2)sc1C
category-label: MID

molecule: NC(=O)C1CCN(Cc2cccc(-c3ccc(-c4nc5ccc(C(F)(F)F)cc5[nH]4)cc3)c2)CC1
category-label: HIGH

molecule: COc1ccc(CCn2c(=N)c(C(=O)NC3CCCC3)cc3c(=O)n4ccccc4nc32)cc1
category-label: LOW

molecule: CCNc1cc(C(=O)N[C@@H](Cc2ccccc2)[C@H](O)CNC2(C)CCCCC2)cc(N2CCCCS2(=O)=O)c1
category-label: HIGH

molecule: Fc1ccc(-c2oc(C3CCN(CCc4ccc(-c5nc(=S)o[nH]5)cc4)CC3)nc2COCC(F)(F)F)cc1
category-label: HIGH

Band of COc1ccc2cc(-c3nc(-c4c(Cl)cccc4Cl)[nH]c3-c3ccnc(NCCCN4CCCCC4C)c3)ccc2c1 (centres undefined) ?
MID

Categorize the following entry: "Cc1cnc2ccc(NS(=O)(=O)c3ccc4c(Cl)cccc4c3)cc2c1N1CCNCC1"
LOW

Each molecule maps to one class by growth inhibition. Which class for CCCCCCNC(=O)C1Cc2c([nH]c3cc(Cl)ccc23)C2(CCN(CCC)CC2)N1 (centres undefined) ?
LOW

---

# procedure-summary: human hepatoma cell viability loss – ATP luminescence, cytotoxicity control for P. falciparum antimalarial project, primary screen (AID 2303);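 also: 0% = DMSO wells and 100% = digitonin-killed cells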
# test-conditions: HepG2 viability, 24-48 h, at 10 µM, active compounds read high
Activity calls are given as the source filed them.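 The calls were made as follows: active = inhibition above 50%; inactive = the rest.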
property-label: inhibition

Below: 2 molecules and their reported inhibition.
molecule: O=C(/C=C/c1ccc(Cl)c(Cl)c1)NCCCCCN1CCC(NC(=O)Nc2ccc(Cl)cc2F)CC1
inhibition: 100% (active)

molecule: CC1CN(C(=O)c2sc3ccccc3c2Cl)CC(C)O1 (stereo not drawn)
inhibition: -5% (inactive)

Moving on to another molecule below.
Note to self: inhibition recorded for "CN1CCC(N(Cc2ccc(-c3ccc(C(F)(F)F)cc3)cc2)C(=O)Cn2cc(Cc3cnn(C)c3)c(=O)nc2SCc2cccc(F)c2F)CC1" was 68% (active)
